- measured_target: UniProt G5EF15
- Sequence (G5EF15 whole entry, the tested form may be a part): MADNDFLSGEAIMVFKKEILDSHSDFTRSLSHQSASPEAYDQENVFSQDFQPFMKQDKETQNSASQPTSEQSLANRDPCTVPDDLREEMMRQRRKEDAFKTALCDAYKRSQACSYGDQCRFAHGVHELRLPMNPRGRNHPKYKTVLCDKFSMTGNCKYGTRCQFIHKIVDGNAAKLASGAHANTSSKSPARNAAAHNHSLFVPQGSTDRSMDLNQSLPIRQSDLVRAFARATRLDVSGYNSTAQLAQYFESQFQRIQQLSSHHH
- assay_summary: inhibitors of POS-1/mex-3 RNA binding, dose response, biochemical, fluorescence polarization (AID 1964);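 also: purified POS-1 fused to maltose binding protein made in E. coli; potency of compounds blocking POS-1 binding to fluorescent RNA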
The source made the active and inactive calls. Rule as the data show it: actives have a measured EC50 and inactives only a lower limit.
quantity_kind: EC50

[[record]]
compound = "CCNC(=O)c1cc2c(=O)n3cccc(C)c3nc2n(CCc2ccccc2)c1=N"
reported = "4.95 µM (inconclusive)"

[[record]]
compound = "CC(C)C(C(=O)O)N1C(=O)/C(=C/C=C/c2ccco2)SC1=S (configuration not stated)"
reported = "11 µM (inconclusive)"

[[record]]
compound = "O=C1CS/C(=C\\[N+](=O)[O-])N1c1ccccc1"
reported = "> 300 µM (not active)"

[[record]]
compound = "N#Cc1ccccc1CN1C(=O)S/C(=C/c2cccn2-c2ccc(C(=O)O)cc2)C1=O"
reported = "> 300 µM (not active)"

[[record]]
compound = "N#C/C(=C/c1cccn1-c1cccc(C(=O)O)c1)c1ccc(F)cc1"
reported = "> 300 µM (not active)"

[[record]]
compound = "N=c1c(C(=O)NCCN2CCOCC2)cc2c(=O)n3ccccc3nc2n1CCc1ccccc1"
reported = "> 300 µM (not active)"

[[record]]
compound = "C(#Cc1ccc2c(c1)COc1c3ccccc3nn1-2)c1ccccc1"
reported = "> 300 µM (not active)"

[[record]]
compound = "Cc1cc([N+](=O)[O-])nn1CC(=O)NNC(=S)Nc1ccc([N+](=O)[O-])cc1"
reported = "28.3 µM (active)"

[[record]]
compound = "Oc1ccc2ccccc2c1/C=N/Nc1nnc(-c2ncc[nH]2)c2ccccc12"
reported = "48.7 µM (inconclusive)"

[[record]]
compound = "CCN1C(=O)/C(=C2/C=Cc3ccccc3N2C)OC1=S"
reported = "55.8 µM (active)"

[[record]]
compound = "O=C1C2CC=C(Cl)CC2C(=O)N1CCc1ccccc1 (configuration not stated)"
reported = "29.4 µM (active)"

[[record]]
compound = "CN1C(=O)/C(=C/c2ccc3c(c2)OCO3)N=C1c1ccccc1"
reported = "> 300 µM (not active)"


* * *

- measured_target: Streptokinase A (Streptococcus pyogenes serotype M1, UniProt P10520)
- Sequence (P10520 whole entry): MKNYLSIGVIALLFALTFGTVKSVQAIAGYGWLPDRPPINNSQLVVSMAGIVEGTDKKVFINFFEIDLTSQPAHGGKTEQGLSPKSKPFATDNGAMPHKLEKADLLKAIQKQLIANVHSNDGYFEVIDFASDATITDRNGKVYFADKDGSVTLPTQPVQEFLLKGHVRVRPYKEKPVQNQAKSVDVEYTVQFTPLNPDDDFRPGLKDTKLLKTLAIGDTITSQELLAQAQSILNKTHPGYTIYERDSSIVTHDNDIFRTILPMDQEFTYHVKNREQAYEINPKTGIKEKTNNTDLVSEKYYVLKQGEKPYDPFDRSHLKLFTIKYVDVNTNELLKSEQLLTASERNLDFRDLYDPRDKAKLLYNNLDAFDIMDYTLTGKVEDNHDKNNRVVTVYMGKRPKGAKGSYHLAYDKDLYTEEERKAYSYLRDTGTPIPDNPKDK
- assay_summary: S. pyogenes streptokinase expression inhibitors, potency, dose response, plasminogen activation absorbance, OD405 (AID 1914);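 also: secreted streptokinase activity via plasminogen activation per viability signal from cell pellet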
- Format: functional, Streptococcus pyogenes M1 GAS
Activity calls are given as the source filed them. Rule as the data show it: actives have a measured EC50 and inactives only a lower limit.
quantity_kind: EC50

[[record]]
compound = "CC(=O)[C@@]1(O)C(C)CC2C3C=C(C)C4=Cc5c(cnn5-c5ccccc5)C[C@]4(C)C3C(O)C[C@@]21C (stereo not given in full)"
reported = "2.97 µM (active)"

[[record]]
compound = "CC(C)C1Nc2c(O)cc(Cl)c([N+](=O)[O-])c2C2C=CCC21 (stereo not given)"
reported = "> 150 µM (not active)"

[[record]]
compound = "Cc1c(C(=O)NNC(=S)NCc2ccc(Cl)cc2)oc2ccccc12"
reported = "22.5 µM (active)"

[[record]]
compound = "Cc1ccc(-c2cnc(N)n2C)cc1C"
reported = "89.4 µM (active)"

[[record]]
compound = "O=C(NC12CC3CC(CC(C3)C1)C2)c1ccc([N+](=O)[O-])o1"
reported = "> 150 µM (not active)"

[[record]]
compound = "CC(=O)OCCCNc1cc(Sc2nc3ccccc3s2)c2nonc2c1[N+](=O)[O-]"
reported = "> 150 µM (not active)"

[[record]]
compound = "CSc1nc2cc(Cl)c(Oc3cccc(Cl)c3Cl)cc2[nH]1"
reported = "4.69 µM (active)"

[[record]]
compound = "COc1ccc(S(=O)(=O)N[C@@H](C)C(=O)OCC(=O)Nc2cc3oc4ccccc4c3cc2OC)cc1"
reported = "> 150 µM (not active)"

[[record]]
compound = "COc1ccc(-c2c/c(=N\\c3nc(-c4ccccc4)c(C)s3)c3ccccc3o2)cc1O"
reported = "15.5 µM (active)"

[[record]]
compound = "CCCn1c(NC(=O)c2ccc(Cl)c(S(=O)(=O)N3CCCC3)c2)nc2ccccc21"
reported = "> 150 µM (not active)"


Each recorded value in this set is attributed to ChEMBL document CHEMBL1201862.
